assayed_system: MCL-1 (Homo sapiens, UniProt Q07820, K194A/K197A/R201A)
Sequence (Q07820 173-321 K194A/K197A/R201A, looked up): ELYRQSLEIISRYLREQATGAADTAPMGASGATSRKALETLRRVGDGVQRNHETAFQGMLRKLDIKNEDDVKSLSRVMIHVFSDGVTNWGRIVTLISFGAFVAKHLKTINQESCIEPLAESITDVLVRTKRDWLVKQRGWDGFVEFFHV
assay_overview: Protein-compound interaction assay, surface plasmon resonance (SPR assay, Assay 8)
Type: binding
protocol_conditions: SPR, immobilized MBP-MCL-1, 25° C.; geometric mean; read-out: KD
Let's look at some compounds and their measured Kd.
Numeric only. Scale: nM

CCc1nn(CCN2CCOCC2)c2c1-c1c(Cl)ccc3c(CCCOc4cccc5cc(F)ccc45)c(C(=O)O)n(c13)Cc1ccccc1COC2 (single isomer, unassigned; enantiomer 1) : 1.5

GET /values?readout=Kd&item= CCNCC.Cc1c2c(nn1C)COCc1ncccc1Cn1c(C(=O)O)c(CCCOc3cccc4ccccc34)c3ccc(Cl)c-2c31 (single isomer, unassigned; enantiomer 1)
1.7

* * *

Test system: SUDHL5
assay_overview: Induction of cytotoxicity in SUDHL5 cells, CellTiter-Glo (Assay 6)
Type: cell-based
protocol_conditions: SUDHL5, 5 hours incubation, median, read-out: Cytotox SUDHL5 [M] (median)
readout_kind: IC50 (M)
Use M as the unit, but write only the number.

Cc1c2c(nn1C)CN(C(=O)CC1CCOCC1)Cc1ccccc1Cn1c(C(=O)O)c(CCCOc3cccc4ccccc34)c3cccc-2c31 (single isomer, unassigned; enantiomer 1) [Example 22] : 1.7e-05
Cc1c2c(nn1C)CN(S(=O)(=O)CCN1CCOCC1)Cc1ccccc1Cn1c(C(=O)O)c(CCCOc3cccc4ccccc34)c3cccc-2c31 (single isomer, unassigned; enantiomer 1) [Example 31] : 5.3e-06
Cc1c2c(nn1C)COCc1ccccc1Cn1c(C(=O)O)c(CCCOc3cccc4ccccc34)c3ccc(Cl)c-2c31 (single isomer, unassigned; enantiomer 2) [Example 38] : 2.3e-06
CCc1nn(CCN2CCOCC2)c2c1-c1c(Cl)ccc3c(CCCOc4cccc5cc(F)ccc45)c(C(=O)O)n(c13)Cc1ccccc1COC2 (single isomer, unassigned; enantiomer 1) [Example 52] : 5.2e-07
Cc1c2c(nn1C)COCc1ccccc1Cn1c(C(=O)O)c(CCCOc3cccc4cc(F)ccc34)c3ccc(F)c-2c31 (single isomer, unassigned; enantiomer 1) [Example 65] : 1e-06

Entry Cc1c2c(nn1C)COCc1ccccc1Cn1c(C(=O)O)c(CCCOc3cccc4ccccc34)c3ccc(F)c-2c31 (single isomer, unassigned; enantiomer 1) [Example 68] has what IC50?
1.9e-06

Endpoint output: IC50 of CCNCC.Cc1c2c(nn1C)COCc1ncccc1Cn1c(C(=O)O)c(CCCOc3cccc4ccccc34)c3ccc(Cl)c-2c31 (single isomer, unassigned; enantiomer 1) . Value?
1.4e-06

Returns the measured IC50 for the input compound. Input: Cc1c2c(nn1C)COCc1cccnc1Cn1c(C(=O)O)c(CCCOc3cccc4ccccc34)c3ccc(Cl)c-2c31 (single isomer, unassigned; enantiomer 2)
6e-06

# query: IC50 of entry CCc1c2c(nn1C)COCc1ccccc1Cn1c(C(=O)O)c(CCCOc3cccc4cc(F)ccc34)c3ccc(F)c-2c31 (single isomer, unassigned; enantiomer 1) [Example 74]
1.1e-06

* * *

assayed_system: BCL-2 (Homo sapiens, UniProt P10415)
Sequence (P10415 1-211): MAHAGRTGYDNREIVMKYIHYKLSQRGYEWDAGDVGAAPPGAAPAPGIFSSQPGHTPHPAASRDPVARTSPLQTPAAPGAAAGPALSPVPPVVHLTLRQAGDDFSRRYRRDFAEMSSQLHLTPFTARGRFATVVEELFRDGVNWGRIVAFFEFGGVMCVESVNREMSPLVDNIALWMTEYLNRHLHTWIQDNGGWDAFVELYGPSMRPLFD
assay_overview: Protein-protein interaction assay BCL-2/Bad BH3 peptide, TR-FRET (BCL-2 assay, Assay 3)
Format: binding
protocol_conditions: His-BCL-2 / Bad BH3 peptide, median
Quick list: IC50 per entry.
Respond with the bare value in µM.

CCc1c2c(nn1C)COCc1ccccc1Cn1c(C(=O)O)c(CCCOc3cccc4ccccc34)c3ccc(F)c-2c31 (single isomer, unassigned; enantiomer 1) : 12.8
Cc1cc(OCCCc2c(C(=O)O)n3c4c(c(F)ccc24)-c2c(nn(C)c2C)COCc2ccccc2C3)cc(C)c1Cl : 19.8
CCc1c2c(nn1C)COCc1ccccc1Cn1c(C(=O)O)c(CCCOc3cccc4cc(F)ccc34)c3ccc(F)c-2c31 (single isomer, unassigned; enantiomer 1) : 19.8
CCc1nn(C)c2c1-c1c(F)ccc3c(CCCOc4cccc5cc(F)ccc45)c(C(=O)O)n(c13)Cc1ccccc1COC2 (racemic) : 17.8
CCc1nn(C)c2c1-c1c(F)ccc3c(CCCOc4cccc5c4CCCC5)c(C(=O)O)n(c13)Cc1ccccc1COC2 (racemic) : 13.7

Fill blank: measured IC50 of the compound CCc1c2c(nn1C)COCc1ccccc1Cn1c(C(=O)O)c(CCCOc3ccc(F)c4ccccc34)c3ccc(F)c-2c31 (racemic) is ____.
15.8

Please report the recorded IC50 for CCc1nn(C)c2c1-c1c(Cl)ccc3c(CCCOc4cccc5cc(F)ccc45)c(C(=O)O)n(c13)Cc1ccccc1COC2 (single isomer, unassigned; enantiomer 1) .
10.6

Suppose we examine the compound CCc1c2c(nn1C)COCc1ccccc1Cn1c(C(=O)O)c(CCCOc3cccc4c3CCCC4)c3ccc(F)c-2c31 (racemic) ; what IC50 value has been reported?
12.6

Suppose we examine the compound CCc1nn(C)c2c1-c1c(F)ccc3c(CCCOc4cccc5c4CCC5)c(C(=O)O)n(c13)Cc1ccccc1COC2 (racemic) ; what IC50 value has been reported?
13.7

* * *

Reported IC50 is given for each of the following compounds.
Tested on: HMC-1-8
assay_overview: Anti-proliferative effect in HMC-1-8 cells, CellTiter-Glo (Assay 7)
Assay type: cell-based
protocol_conditions: 72 h, HMC-1-8, 72 hours incubation, read-out: Antiproli HMC-1-8

Cc1c2c(nn1C)COCc1nccnc1Cn1c(C(=O)O)c(CCCOc3cccc4ccccc34)c3ccc(Cl)c-2c31 (single isomer, unassigned; enantiomer 1) : 11.9 µM

Shifting focus to the compound that follows.
Which measured IC50 value corresponds to Cc1c2c(nn1C)COCc1nccnc1Cn1c(C(=O)O)c(CCCOc3cccc4cc(F)ccc34)c3ccc(Cl)c-2c31 (racemic) ?
32 µM

* * *

assayed_system: BCL-2 (Homo sapiens)
assay_overview: Protein-protein interaction assay BCL-2/Bad BH3 peptide, TR-FRET (BCL-2 assay, Assay 3)
Type: binding
protocol_conditions: His-BCL-2 / Bad BH3 peptide, median
readout_kind: IC50 (µM)
The figure you give is taken to be in µM; do not add the unit.

Example results:
CCc1c2c(nn1C)COCc1ccccc1Cn1c(C(=O)O)c(CCCOc3cc(C)c(Cl)c(C)c3)c3ccc(F)c-2c31 (racemic) : 15.6
Cc1c2c(nn1C)COCc1ccccc1Cn1c(C(=O)O)c(CCCOc3cccc4cc(F)ccc34)c3ccc(F)c-2c31 (single isomer, unassigned; enantiomer 1) : 16.9
Cc1c2c(nn1C)COCc1ccccc1Cn1c(C(=O)O)c(CCCOc3ccc(F)c4ccccc34)c3ccc(F)c-2c31 (racemic) : 18.1
CCc1c2c(nn1C)COCc1ccccc1Cn1c(C(=O)O)c(CCCOc3cccc4cc(F)ccc34)c3ccc(Cl)c-2c31 (single isomer, unassigned; enantiomer 1) : 18

Below: the item to evaluate.
Find the measured IC50: item Cc1nn(C)c2c1-c1c(F)ccc3c(CCCOc4cccc5cc(F)ccc45)c(C(=O)O)n(c13)Cc1ccccc1COC2 (racemic) , target or system BCL-2 (Homo sapiens).
18

* * *

Below, each entry is listed with its recorded IC50.
System: HMC-1-8
assay_overview: Anti-proliferative effect in HMC-1-8 cells, CellTiter-Glo (Assay 7)
Assay type: cell-based
protocol_conditions: read-out: Antiproli HMC-1-8, HMC-1-8, 72 hours incubation
Method: Assessment of the Anti-Proliferative Effect of Compounds in Different Cell Lines The impact of compounds on the proliferation of different cell lines was assessed using the CellTiter-Glo® Luminescent Cell Viability reagent from Promega (G7573). In parallel, cells were plated in a reference (day 0) plate for time zero determination. […] After 72 hours incubation, the treated plates were measured in the same way as the day 0 plate mentioned above. […]
Numbers only; they are read as µM.

CCc1c2c(nn1C)COCc1ccccc1Cn1c(C(=O)O)c(CCCOc3cccc4cc(F)ccc34)c3ccc(Cl)c-2c31 (single isomer, unassigned; enantiomer 1) [Example 55] : 2.39

Now take the following compound into account.
Which IC50 is reported for this compound? CCc1c2c(nn1C)COCc1ccccc1Cn1c(C(=O)O)c(CCCOc3cccc4cc(F)ccc34)c3ccc(Cl)c-2c31 (single isomer, unassigned; enantiomer 2) [Example 56]
10.9

* * *

IC50: recorded values
System: A2780
assay_overview: Anti-proliferative effect in A2780 cells, CellTiter-Glo (Assay 7)
Format: cell-based
protocol_conditions: A2780, 72 hours incubation, CellTiter-Glo; several values per example; read-out: Antiproli A2780
Description: Assessment of the Anti-Proliferative Effect of Compounds in Different Cell Lines The impact of compounds on the proliferation of different cell lines was assessed using the CellTiter-Glo® Luminescent Cell Viability reagent from Promega (G7573). In parallel, cells were plated in a reference (day 0) plate for time zero determination. […] After 72 hours incubation, the treated plates were measured in the same way as the day 0 plate mentioned above. […]
Please state the figure in µM; there is no need to write the unit.

As a guide, the following entries are already answered.
CCc1nn(CCN2CCOCC2)c2c1-c1c(Cl)ccc3c(CCCOc4cccc5cc(F)ccc45)c(C(=O)O)n(c13)Cc1ccccc1COC2 (single isomer, unassigned; enantiomer 2) [Example 53] : 8.15
Cc1c2c(nn1C)CNCc1ccccc1Cn1c(C(=O)O)c(CCCOc3cccc4ccccc34)c3cccc-2c31 (racemic) : 12.2

// next entry
Dear colleague, I am looking for the recorded IC50 of the following compound: Cc1c2c(nn1C)COCc1cccnc1Cn1c(C(=O)O)c(CCCOc3cccc4ccccc34)c3cccc-2c31 [Example 06]
8.66
